// provenance: patent US20260132200A1

# assay.target: T1, human CD3 expressed on cells (Jurkat, a CD3+ human T-cell line; human T cells) (human, UniProt P07766 23-126; P04234 22-100)
# T1 chain 1: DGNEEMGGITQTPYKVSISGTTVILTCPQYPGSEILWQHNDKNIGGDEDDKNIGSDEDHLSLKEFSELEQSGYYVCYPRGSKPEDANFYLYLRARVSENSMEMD
# T1 chain 2: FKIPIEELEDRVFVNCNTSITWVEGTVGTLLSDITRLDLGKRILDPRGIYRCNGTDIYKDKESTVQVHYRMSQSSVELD
# protocol.details: cell-based or functional assay
reported.endpoint: U937 Cytotoxicity Human T-cells [M] (EC50) (M)
Your answer should be a plain number; it is taken to be in M.

So, H2M2776N (antibody, mouse IgG2, V domains shown, mouse IgG2 Fc (H2M), human variable regions) VH: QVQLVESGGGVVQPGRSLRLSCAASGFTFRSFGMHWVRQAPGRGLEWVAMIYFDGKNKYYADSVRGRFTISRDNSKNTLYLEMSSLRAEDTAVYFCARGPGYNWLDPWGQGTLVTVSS VL: EIVMTQSPATLSVSPGERVILSCRASQSISRNLAWYQQKPGQAPRLLIYGATTRATGVPARFSGSGSGTEFTLTISSLQSEDFAVFYCQQYNNRPLTFGGGTEVEIK ? Its U937 Cytotoxicity Human T-cells [M] (EC50) was 4.06e-12

Data point: H2M2708N (antibody, mouse IgG2, V domains shown) VH: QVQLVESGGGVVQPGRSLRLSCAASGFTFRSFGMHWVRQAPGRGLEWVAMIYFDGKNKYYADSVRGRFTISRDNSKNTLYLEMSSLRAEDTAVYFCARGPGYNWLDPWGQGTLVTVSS VL: EIVMTQSPATLSVSPGERVTLSCRASQSISRNLAWYQQKPGQAPRLLIYGASTRATGVPARFSGSGSGTEFTLTISSLQSEDFAVFHCQQYNNRPLTFGGGTEVEIK ; U937 Cytotoxicity Human T-cells [M] (EC50) = 3.27e-12

Looking up H2M3540N (antibody, mouse IgG2, V domains shown) VH: QVHLEESGGGVVQPGRSLRLSCSASGFTFSSYAMHWVRQAPGKGLEWVAVIWYDGTNKYYLDSVKGRFTISRDNSKNTLFLQMNSLRAEDTAVYYCARDRGSIITHWGQGTLVTVSS VL: DIQMTQSPSSLSASIGDRVTITCRASQNISSYLNWYQQKPGKAPKLLIYAASSLQSGVPSRFSGSGSGTDFTLTISSLQPEDFATYYCQQTYSTPPITFGQGTRLEIK , I found its U937 Cytotoxicity Human T-cells [M] (EC50) recorded as 1.25e-11

Memo: H2M2707N (antibody, mouse IgG2, V domains shown) VH: QVQLVESGGGVVQPGRSLRLSCIASGFTFRSYGMHWVRQAPGKGLEWVAMIYYDGNNKYYADSVRGRFTISRDNSKNTLYLQMNSLRADDTAVYFCARGPGYNWLDPWGQGTLVTVSS VL: EIVMTQSPATLSVSPGERATLSCRASQSVSSNLAWYQQKPGQAPRLLIYGASTRATGIPARFSGSGSGTEFTLTISSLQSEDFAVYYCQQYNNRPLTFGGGTKVEIK , reported U937 Cytotoxicity Human T-cells [M] (EC50): 7.21e-12

The recorded U937 Cytotoxicity Human T-cells [M] (EC50) for entry H2M2862N (antibody, mouse IgG2, V domains shown) VH: QVQLVESGGGVVQPGRSLRLSCAASGFTFRSYGMHWVRQAPGKGLEWVAMIYYDGNNKKYADSVRGRFTISRDNSKNTLYLQMNSLRVEDTAVYFCARGPGYNWLDPWGQGTLVTVSS VL: EIVMTQSPATLSVSPGERATLSCRASQSVSRNLAWYQQKPGQAPRLLIYGASTRATDIPARFSGSGSGTEFILNISSLQSEDFALYYCQQYSNWPLTFGGGTEVEIK equals 7.66e-12

Sample H2M2777N (antibody, mouse IgG2, V domains shown) VH: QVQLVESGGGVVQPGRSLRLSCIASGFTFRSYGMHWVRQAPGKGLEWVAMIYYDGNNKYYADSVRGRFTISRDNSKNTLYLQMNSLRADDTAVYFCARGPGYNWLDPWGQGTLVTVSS VL: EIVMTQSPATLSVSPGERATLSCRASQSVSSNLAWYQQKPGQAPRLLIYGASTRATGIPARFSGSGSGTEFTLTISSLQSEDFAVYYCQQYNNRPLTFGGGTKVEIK ; U937 Cytotoxicity Human T-cells [M] (EC50) observed: 4.86e-12

// H2M2711N (antibody, V domains shown) VH: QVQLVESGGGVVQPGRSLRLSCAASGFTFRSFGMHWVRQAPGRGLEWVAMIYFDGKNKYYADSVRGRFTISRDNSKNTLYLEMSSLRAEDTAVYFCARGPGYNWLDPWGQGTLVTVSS VL: EIVMTQSPATLSVSPGERATLSCRASQSVSRNLAWYQQKPGQAPRLLIYGASTRATGVPARFSGSGSGTEFTLTISSLQSEDFAVFHCQQYNNRPLTFGGGTEVEIK : U937 Cytotoxicity Human T-cells [M] (EC50) value = 3.66e-12

Reported U937 Cytotoxicity Human T-cells [M] (EC50) for H2M2775N (antibody, mouse IgG2, V domains shown) VH: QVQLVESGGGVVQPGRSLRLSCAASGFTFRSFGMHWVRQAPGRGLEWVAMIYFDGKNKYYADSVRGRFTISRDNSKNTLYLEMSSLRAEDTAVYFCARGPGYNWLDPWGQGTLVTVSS VL: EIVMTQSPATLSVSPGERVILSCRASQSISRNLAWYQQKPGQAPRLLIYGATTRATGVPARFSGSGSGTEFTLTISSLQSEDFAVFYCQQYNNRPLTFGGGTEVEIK was 3.38e-12

For reference, reported U937 Cytotoxicity Human T-cells [M] (EC50) for H2M3547N (antibody, mouse IgG2, V domains shown) VH: EAQLVESGGGLVQPGRSLRLSCTTSGFTFDDYTMHWVRQAPGKGLEWISDISWNGGTKGYADSVKGRFTISRDNAKNSLYLQMDSLRGEDTALYYCVKDKSGYGHFYFGLDVWGQGTTVTVSS VL: DIQMTQSPSSLTASVGDRVTFTCRASQSISRHLSWYQQKPGKAPKLLIYAASSLESGVPSRFSGSGSGTDFTLTISSLHPEDFATYYCQQSYSNPPITFGQGTRLEIK stands at 3.17e-11

The recorded U937 Cytotoxicity Human T-cells [M] (EC50) for entry H2M2885N (antibody, mouse IgG2, V domains shown) VH: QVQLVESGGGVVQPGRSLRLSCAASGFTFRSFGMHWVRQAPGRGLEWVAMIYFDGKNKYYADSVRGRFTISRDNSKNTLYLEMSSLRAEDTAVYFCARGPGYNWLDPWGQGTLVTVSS VL: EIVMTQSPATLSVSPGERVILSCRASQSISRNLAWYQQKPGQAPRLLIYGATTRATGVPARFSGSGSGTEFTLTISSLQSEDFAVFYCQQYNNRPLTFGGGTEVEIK equals 3.71e-12
